Biological target: UniProt P15056
Sequence (P15056 whole entry): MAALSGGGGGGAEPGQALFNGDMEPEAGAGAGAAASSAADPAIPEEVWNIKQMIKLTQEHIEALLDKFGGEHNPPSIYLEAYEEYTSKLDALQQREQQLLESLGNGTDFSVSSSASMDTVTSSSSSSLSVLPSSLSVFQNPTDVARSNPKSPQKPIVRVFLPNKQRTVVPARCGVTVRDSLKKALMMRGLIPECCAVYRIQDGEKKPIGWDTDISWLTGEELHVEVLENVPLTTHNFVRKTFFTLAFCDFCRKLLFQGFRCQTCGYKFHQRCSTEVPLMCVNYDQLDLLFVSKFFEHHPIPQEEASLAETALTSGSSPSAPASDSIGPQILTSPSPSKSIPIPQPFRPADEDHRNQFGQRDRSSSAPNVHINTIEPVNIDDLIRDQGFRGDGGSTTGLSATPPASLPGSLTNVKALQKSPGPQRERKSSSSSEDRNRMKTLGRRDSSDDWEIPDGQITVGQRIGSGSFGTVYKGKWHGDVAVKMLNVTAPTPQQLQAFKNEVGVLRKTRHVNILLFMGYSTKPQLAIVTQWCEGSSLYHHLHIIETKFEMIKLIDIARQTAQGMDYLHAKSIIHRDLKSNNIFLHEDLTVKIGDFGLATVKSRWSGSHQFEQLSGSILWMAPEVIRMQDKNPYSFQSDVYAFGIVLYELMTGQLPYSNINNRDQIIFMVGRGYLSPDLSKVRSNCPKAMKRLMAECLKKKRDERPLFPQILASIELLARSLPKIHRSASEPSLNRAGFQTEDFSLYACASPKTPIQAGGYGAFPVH
Test: BRAF kinase activity assay (ADP-Glo)
Assay type: biochemical
Details: BRAF; read-out: Kinase IC50 (nM), BRAF biochemical kinase assay
Protocol: Compound preparation: solid samples of each substances in 1 dram vials were suspended in DMSO (Fisher Scientific) at a stock concentration of 20 mM. Stocks were kept at −20° C. and protected from light. […] BRAF and CRAF kinase reactions were carried out for a total of 2 hours at 30° C. and then stopped by ½ dilution in ADP-Glo Reagent (cat #V9102; Promega; part V912C). […] The effect of each compound dilution on BRAF and CRAF kinase activity was expressed as % inhibition and calculated as follows. […]
Measured IC50 by item
MEASUREMENT NAME: IC50

STRUCTURE STRING	DATA VALUE
CN1CCN(c2ncc(-c3ccc4ncnc(Nc5c(F)ccc(NS(=O)(=O)c6cccc(Cl)c6Cl)c5F)c4n3)s2)CC1	1 to 10 nM
O=S(=O)(Nc1ccc(F)c(Nc2ncnc3ccc(-n4cnc5c(C6CCN(CCO)CC6)cccc54)nc23)c1F)c1cccc(Cl)c1Cl	< 1 nM
N#CC1(c2cccc3c2nnn3-c2ccc3ncnc(Nc4c(F)ccc(NS(=O)(=O)c5cccc(Cl)c5Cl)c4F)c3n2)CC1	1 to 10 nM
O=S(=O)(Nc1ccc(F)c(Nc2ncnc3ccc(-n4cnc5c(N6CCC(O)(CCO)CC6)cccc54)nc23)c1F)c1cccc(Cl)c1Cl	< 1 nM
Cc1cn(-c2ccc3ncnc(Nc4c(F)ccc(NS(=O)(=O)c5cccc(Cl)c5Cl)c4F)c3n2)nn1	< 1 nM
O=S(=O)(Nc1ccc(F)c(Nc2ncnc3ccc(-n4cnc5c(N6CCNCC6)cccc54)nc23)c1F)c1cccc(Cl)c1Cl	< 1 nM
